Where do the numbers come from? From patent US12365687B2.

The entries below are paired with their reported Ki.
target: human GABAA α2β2γ1 receptor (Homo sapiens (Human), UniProt P47869+Q8N1C3); assay: Radioligand binding assay for γ1-containing GABAA subtypes, [3H]RO7239181 competition (α2β2γ1); details: Ki h-GABAA α2β2γ1, [3H]RO7239181 competition binding, human GABAA α2β2γ1
ASSAY READOUT: Ki

• C[C@@H]1N=C(c2ncccc2F)c2c(ccc(Cl)c2Cl)-n2nc(C(=O)N3CC4(CCOCC4)C3)nc21 [Example 95] = 47.6 nM
• COC1CN(C(=O)c2nc3n(n2)-c2ccc(Cl)c(Cl)c2C(c2c(F)cccc2F)=NC3)C1 [Example 11] = 2.7 nM
• C[C@@H]1N=C(c2c(F)cccc2F)c2c(ccc(Cl)c2Cl)-n2nc(C(=O)NC3COC3)nc21 [Example 55] = 5.4 nM
• CNC(=O)c1nc2n(n1)-c1ccc(Cl)c(Cl)c1C(c1c(F)cccc1F)=NC2 [Example 6] = 5.5 nM
• [2H]C([2H])([2H])N(C(=O)c1nc2n(n1)-c1ccc(Cl)c(Cl)c1C(c1c(F)cccc1F)=N[C@H]2C)C([2H])([2H])[2H] [Example 19] = 32.5 nM
• C[C@@H]1N=C(c2ncccc2F)c2c(ccc(C(F)(F)F)c2Cl)-n2nc(C(=O)N3CCC3)nc21 [Example 85] = 60.9 nM
• CCNC(=O)c1nc2n(n1)-c1ccc(Cl)c(Cl)c1C(c1c(F)cccc1F)=N[C@H]2C [Example 64] = 5.4 nM
• Cc1cnc2n1-c1ccc(C(F)(F)F)c(Cl)c1C(c1c(F)cccc1F)=N[C@H]2C [Example 115] = 12.3 nM
• C[C@@H]1N=C(c2c(F)cccc2F)c2c(ccc(C(F)(F)F)c2Cl)-n2nc(C(=O)NCC#N)nc21 [Example 110] = 12.1 nM
• C[C@@H]1N=C(c2ncccc2F)c2c(ccc(C(F)(F)F)c2Cl)-n2cc(CO)nc21 [Example 153] = 62.4 nM
• C[C@@H]1N=C(c2c(F)cccc2F)c2c(ccc(Cl)c2Cl)-n2nc(C(=O)N3CC4(COC4)C3)nc21 [Example 93] = 3.3 nM
• CCOC1CN(C(=O)c2nc3n(n2)-c2ccc(Cl)c(Cl)c2C(c2ncccc2F)=N[C@H]3C)C1 [Example 86] = 37 nM
• C[C@@H]1N=C(c2ncccc2F)c2c(ccc(Cl)c2Cl)-n2nc(C(=O)N3CC4(CCCO4)C3)nc21 [Example 97] = 14.8 nM
• Cc1nc2n(n1)-c1ccc(C(F)(F)F)c(Cl)c1C(c1ncccc1F)=N[C@H]2C [Example 83] = 70.8 nM
• C[C@@H]1N=C(c2c(F)cccc2F)c2c(ccc(Cl)c2Cl)-n2nc(S(C)(=O)=O)nc21 [Example 82] = 19.8 nM
• C[C@@H]1N=C(c2ncccc2F)c2c(ccc(C(F)(F)F)c2Cl)-n2nc(C(=O)N3CC[C@H](F)C3)nc21 [Example 123] = 91.8 nM

---

molecular target: human GABAA α1β3γ2 receptor (Homo sapiens (Human), UniProt P14867+P18507); test: Radioligand binding assay for γ2-containing GABAA subtypes, [3H]Flumazenil competition (α1β3γ2); details: Log[Ki α1β3γ2 (nM)/Ki α2β2γ1 (nM)]
So basically, if LogSel comes in under 2 it's condition met, and if it's 2 or more it's condition not met.

• C[C@@H]1N=C(c2c(F)cccc2F)c2c(ccc(C(F)(F)F)c2Cl)-n2nc(C(=O)N3CC(C(F)F)C3)nc21 = condition not met
• Cc1cnc2n1-c1ccc(C(F)(F)F)c(Cl)c1C(c1ncccc1F)=N[C@H]2C = condition not met
• [2H]C([2H])([2H])OC1CN(C(=O)c2nc3n(n2)-c2ccc(Cl)c(Cl)c2C(c2c(F)cccc2F)=N[C@H]3C)C1 = condition not met
• C[C@@H]1N=C(c2c(F)cccc2F)c2c(ccc(Cl)c2Cl)-n2nc(C(=O)N3CC4(CCCO4)C3)nc21 = condition not met
• Cc1cnc2n1-c1ccc(Br)c(Cl)c1C(c1c(F)cccc1F)=N[C@H]2C = condition met
• Cc1nc2n(n1)-c1ccc(C(F)(F)F)c(Cl)c1C(c1ncccc1F)=N[C@H]2C = condition met
• C[C@@H]1N=C(c2ncccc2F)c2c(ccc(C(F)(F)F)c2Cl)-n2nc(C(=O)N3CC(C(F)F)C3)nc21 = condition not met
• C[C@@H]1N=C(c2ncccc2F)c2c(ccc(C(F)(F)F)c2Cl)-n2cc(C(=O)N[C@H]3C[C@@H](O)C3)nc21 = condition not met
• C[C@@H]1N=C(c2ncccc2F)c2c(ccc(Cl)c2Cl)-n2nc(C(=O)N3CC[C@@H](F)C3)nc21 = condition met
• C[C@@H]1N=C(c2c(F)cccc2F)c2c(ccc(Cl)c2Cl)-n2nc(C3COC3)nc21 = condition met
• CNC(=O)c1cn2c(n1)CN=C(c1ncccc1F)c1c-2ccc(Cl)c1Cl = condition met
• C[C@@H]1N=C(c2c(F)cccc2F)c2c(ccc(Cl)c2Cl)-n2nc(C(=O)N3CC[C@H](O)C3)nc21 = condition not met
• Cc1cn2c(n1)[C@H](C)N=C(c1c(F)cccc1F)c1c-2ccc(C(F)(F)F)c1Cl = condition met
• C[C@@H]1N=C(c2c(F)cccc2F)c2c(ccc(Cl)c2Cl)-n2cc(C(=O)N3CC(O)C3)nc21 = condition met
